Biological target: PKR WT (Homo sapiens)
Experiment: PKR WT enzymatic assay AC50
Type: biochemical
Conditions: wild type PKR
Description: • PKR or PKR mutant enzyme solution was diluted in assay buffer. • 2 μL of test compound was added into wells first, and then 180 μL reaction mix was added. • Reactions mixture with test compound was assembled except for ADP, and plates were stored for 60 minutes at room temperature. • 20 uL ADP was added to start reaction at room temperature and reaction progress was measured as changes in absorbance at 340 nm wavelength at room temperature. […]
Measured AC50 by item

Please review the entries below; each comes with its answer.
molecule_smiles=O=C(c1ccc(NS(=O)(=O)c2cccc3nonc23)cc1)N1CC(O)(Cc2ccccc2)C1 assay_system="PKR WT (Homo sapiens)" reported_value="> 10000 nM"
molecule_smiles=CCCC1(O)CN(C(=O)c2ccc(NS(=O)(=O)c3cccc4cccnc34)cc2)C1 assay_system="PKR WT (Homo sapiens)" reported_value="101 to 1000 nM"
molecule_smiles=CC(C)C1(O)CN(C(=O)c2ccc(NS(=O)(=O)c3cccc4cccnc34)cc2)C1 assay_system="PKR WT (Homo sapiens)" reported_value="1010 to 10000 nM"

AC50 reported for this compound O=C(c1ccc(NS(=O)(=O)c2cccc3cccnc23)cc1)N1CC(O)(CC2CC2)C1 : 101 to 1000 nM

AC50 reported for this compound Cc1ccccc1C1(O)CN(C(=O)c2ccc(NS(=O)(=O)c3cccc4cccnc34)cc2)C1 : < 100 nM

AC50 reported for this compound O=C(c1ccc(NS(=O)(=O)c2cccc3cccnc23)cc1)N1CC(O)(c2ncccc2C(F)(F)F)C1 : 101 to 1000 nM

AC50 reported for this compound CCCCC1(O)CN(C(=O)c2ccc(NS(=O)(=O)c3cccc4cccnc34)cc2)C1 : < 100 nM

AC50 reported for this compound O=C(c1ccc(NS(=O)(=O)c2cccc3cccnc23)cc1)N1CC(O)(c2ccccc2OC(F)(F)F)C1 : 101 to 1000 nM

* * *

Target: PKR R510Q (Homo sapiens, UniProt P30613, R510Q)
Sequence (P30613 whole entry R510Q): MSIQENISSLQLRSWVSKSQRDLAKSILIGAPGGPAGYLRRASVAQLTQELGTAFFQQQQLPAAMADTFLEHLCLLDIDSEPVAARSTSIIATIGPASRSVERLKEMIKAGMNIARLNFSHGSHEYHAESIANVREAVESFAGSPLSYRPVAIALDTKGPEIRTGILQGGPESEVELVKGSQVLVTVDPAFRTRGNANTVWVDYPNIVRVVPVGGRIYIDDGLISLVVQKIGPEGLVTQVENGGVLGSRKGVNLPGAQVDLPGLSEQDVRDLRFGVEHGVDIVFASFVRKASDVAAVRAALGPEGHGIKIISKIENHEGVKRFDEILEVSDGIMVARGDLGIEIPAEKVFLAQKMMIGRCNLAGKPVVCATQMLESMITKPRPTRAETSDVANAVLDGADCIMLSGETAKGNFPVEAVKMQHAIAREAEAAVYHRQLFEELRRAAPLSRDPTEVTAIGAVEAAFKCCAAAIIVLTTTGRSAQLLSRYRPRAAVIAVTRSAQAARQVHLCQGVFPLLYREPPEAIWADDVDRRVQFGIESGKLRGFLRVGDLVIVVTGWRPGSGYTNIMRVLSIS
Experiment: PKR mutant assay, PKR R510Q AC50
Format: biochemical
Details: mutant PKR R510Q enzyme
Method: • PKR or PKR mutant enzyme solution was diluted in assay buffer. • 2 μL of test compound was added into wells first, and then 180 μL reaction mix was added. • Reactions mixture with test compound was assembled except for ADP, and plates were stored for 60 minutes at room temperature. • 20 uL ADP was added to start reaction at room temperature and reaction progress was measured as changes in absorbance at 340 nm wavelength at room temperature. […]
Measured AC50 by item

Please review the entries below; each comes with its answer.
molecule="O=C(c1ccc(NS(=O)(=O)c2cccc3cccnc23)cc1)N1CC(O)(C2CC2)C1 [Compound 33]" reported_value="> 10000 nM"
molecule="O=C(c1ccc(NS(=O)(=O)c2cccc3c2OCCO3)cc1)N1CC(O)(Cc2ccccc2)C1 [Compound 53]" reported_value="< 100 nM"
molecule="O=C(c1ccc(NS(=O)(=O)c2cccc3cccnc23)cc1)N1CC(O)(CCO)C1 [Compound 38]" reported_value="> 10000 nM"

Lab note: molecule Cc1ncccc1C1(O)CN(C(=O)c2ccc(NS(=O)(=O)c3cccc4cccnc34)cc2)C1 [Compound 19] tested on PKR R510Q (Homo sapiens, UniProt P30613, R510Q); recorded AC50 was 101 to 1000 nM

Lab note: molecule CC(C)CC1(O)CN(C(=O)c2ccc(NS(=O)(=O)c3cccc4cccnc34)cc2)C1 [Compound 35] tested on PKR R510Q (Homo sapiens, UniProt P30613, R510Q); recorded AC50 was 1010 to 10000 nM

* * *

target: PKR R532W (Homo sapiens, UniProt P30613, R532W); assay: PKR mutant assay, PKR R532W AC50; format: biochemical; conditions: mutant PKR R532W enzyme
Sequence (P30613 whole entry R532W): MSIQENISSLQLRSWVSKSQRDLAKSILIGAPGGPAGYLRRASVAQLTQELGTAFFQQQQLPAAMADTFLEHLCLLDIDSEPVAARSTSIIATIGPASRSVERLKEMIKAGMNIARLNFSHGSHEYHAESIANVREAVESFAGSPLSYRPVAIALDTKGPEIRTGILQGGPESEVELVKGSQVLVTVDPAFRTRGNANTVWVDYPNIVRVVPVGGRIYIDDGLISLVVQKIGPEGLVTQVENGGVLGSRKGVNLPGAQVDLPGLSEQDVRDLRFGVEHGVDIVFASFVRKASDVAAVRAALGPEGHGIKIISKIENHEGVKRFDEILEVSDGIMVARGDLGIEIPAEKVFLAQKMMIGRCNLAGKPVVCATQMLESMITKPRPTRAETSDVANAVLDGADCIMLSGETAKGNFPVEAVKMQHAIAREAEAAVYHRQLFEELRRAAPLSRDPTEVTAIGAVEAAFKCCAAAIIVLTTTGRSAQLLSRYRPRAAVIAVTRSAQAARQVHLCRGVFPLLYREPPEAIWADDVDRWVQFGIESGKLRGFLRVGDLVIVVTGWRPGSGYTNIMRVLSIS
Measured AC50 by item

Please review the entries below; each comes with its answer.
molecule_smiles=O=C(c1ccc(NS(=O)(=O)c2cccc3cccnc23)cc1)N1CC(O)(c2cccc(C(F)(F)F)c2)C1 recorded_metric=AC50 reported_value="< 100 nM"
molecule_smiles=O=C(c1ccc(NS(=O)(=O)c2cccc3cccnc23)cc1)N1CC(O)(CCCO)C1 recorded_metric=AC50 reported_value="1010 to 10000 nM"
molecule_smiles=O=C(c1ccc(NS(=O)(=O)c2cccc3cccnc23)cc1)N1CC(O)(c2cccc(OC(F)(F)F)c2)C1 recorded_metric=AC50 reported_value="< 100 nM"
molecule_smiles=CCCCC1(O)CN(C(=O)c2ccc(NS(=O)(=O)c3cccc4cccnc34)cc2)C1 recorded_metric=AC50 reported_value="101 to 1000 nM"
molecule_smiles=O=C(c1ccc(NS(=O)(=O)c2cccc3cccnc23)cc1)N1CC(O)(c2ccccc2Cl)C1 recorded_metric=AC50 reported_value="< 100 nM"

AC50 reported for this compound O=C(c1ccc(NS(=O)(=O)c2ccc(C(F)(F)F)cc2)cc1)N1CC(O)(Cc2ccccc2)C1 : > 10000 nM

AC50 reported for this compound O=C(c1ccc(NS(=O)(=O)c2cccc3cccnc23)c(F)c1)N1CC(O)(Cc2ccccc2)C1 : 101 to 1000 nM

* * *

Target: UniProtKB P30613
Assay: PKR WT enzymatic assay AC50
Format: biochemical
Settings: wild type PKR
Experimental: • PKR or PKR mutant enzyme solution was diluted in assay buffer. • 2 μL of test compound was added into wells first, and then 180 μL reaction mix was added. • Reactions mixture with test compound was assembled except for ADP, and plates were stored for 60 minutes at room temperature. • 20 uL ADP was added to start reaction at room temperature and reaction progress was measured as changes in absorbance at 340 nm wavelength at room temperature. […]
Recorded metric: AC50

molecule_smiles=O=C(c1ccc(NS(=O)(=O)c2cccc3cccnc23)cc1)N1CC(O)(c2cccnc2C(F)(F)F)C1 reported_value="< 100 nM"
molecule_smiles=O=C(c1ccc(NS(=O)(=O)c2ccccc2C(F)(F)F)cc1)N1CC(O)(Cc2ccccc2)C1 reported_value="> 10000 nM"
molecule_smiles=O=C(c1ccc(NS(=O)(=O)c2cccc3cccnc23)cc1)N1CC(O)(c2cccc(C(F)(F)F)c2)C1 reported_value="< 100 nM"

Consider the record given below.
AC50 reported for this compound O=C(c1ccc(NS(=O)(=O)c2cccc3cccnc23)cc1)N1CC(O)(c2cccc(F)c2)C1 : 101 to 1000 nM

* * *

molecular target: PKR R532W (Homo sapiens, UniProt P30613, R532W); assay: PKR mutant assay, PKR R532W AC50; type: biochemical; conditions: mutant PKR R532W enzyme
Measured AC50 by item

Please review the entries below; each comes with its answer.
compound=O=C(c1ccc(NS(=O)(=O)c2cccc3cnccc23)cc1)N1CC(O)(c2cccc(C(F)(F)F)c2)C1 reported_value="1.01 to 10 µM"
compound=Cc1ncccc1C1(O)CN(C(=O)c2ccc(NS(=O)(=O)c3cccc4cccnc34)cc2)C1 reported_value="< 0.1 µM"
compound=O=C(c1ccc(NS(=O)(=O)c2cccc3cccnc23)cc1)N1CC(O)(c2ccccc2F)C1 reported_value="0.101 to 1 µM"
compound=Cc1cc(F)ccc1C1(O)CN(C(=O)c2ccc(NS(=O)(=O)c3cccc4cccnc34)cc2)C1 reported_value="< 0.1 µM"
compound=O=C(c1ccc(NS(=O)(=O)c2cccc3cccnc23)cc1F)N1CC(O)(Cc2ccccc2)C1 reported_value="0.101 to 1 µM"
compound=O=C(c1ccc(NS(=O)(=O)c2cccc3cccnc23)cc1)N1CC(O)(C2CC2)C1 reported_value="1.01 to 10 µM"
compound="CC(O)CC1(O)CN(C(=O)c2ccc(NS(=O)(=O)c3cccc4cccnc34)cc2)C1 (centres unmarked)" reported_value="1.01 to 10 µM"

Consider the record given below.
AC50 reported for this compound O=C(c1ccc(NS(=O)(=O)c2cccc3c2OCCO3)cc1)N1CC(O)(Cc2ccccc2)C1 : < 0.1 µM

* * *

Measured AC50 by item
biological target: PKR WT (Homo sapiens, UniProt P30613); test: PKR WT enzymatic assay AC50; type: biochemical; details: wild type PKR
Sequence (P30613 whole entry): as the sequence (P30613 whole entry R532W) above, with W532R counted along it

AC50 reported for this molecule COc1cccnc1C1(O)CN(C(=O)c2ccc(NS(=O)(=O)c3cccc4cccnc34)cc2)C1 : 1010 to 10000 nM

AC50 reported for this molecule O=C(c1ccc(NS(=O)(=O)c2cccc3cccnc23)c(F)c1)N1CC(O)(Cc2ccccc2)C1 : 101 to 1000 nM

AC50 reported for this molecule O=C(c1ccc(NS(=O)(=O)c2cccc3cccnc23)cc1)N1CC(O)(CCCO)C1 : 1010 to 10000 nM

AC50 reported for this molecule O=C(c1ccc(NS(=O)(=O)c2cccc3cccnc23)cc1)N1CC(O)(Cc2cccc(F)n2)C1 : 101 to 1000 nM

AC50 reported for this molecule O=C(c1ccc(NS(=O)(=O)c2ccc(OC(F)(F)F)cc2)cc1)N1CC(O)(Cc2ccccc2)C1 : > 10000 nM

* * *

target: PKR WT (Homo sapiens, UniProt P30613); experiment: PKR WT enzymatic assay AC50; format: biochemical; conditions: wild type PKR
Recorded metric: AC50

Please review the entries below; each comes with its answer.
compound="O=C(c1ccc(NS(=O)(=O)c2cccc3cccnc23)cc1)N1CC(O)(c2ccccc2Cl)C1 [Compound 5]" assay_system="PKR WT (Homo sapiens, UniProt P30613)" reported_value="< 100 nM"
compound="COc1cccc(C2(O)CN(C(=O)c3ccc(NS(=O)(=O)c4cccc5cccnc45)cc3)C2)c1 [Compound 61]" assay_system="PKR WT (Homo sapiens, UniProt P30613)" reported_value="< 100 nM"
compound="COc1ncccc1C1(O)CN(C(=O)c2ccc(NS(=O)(=O)c3cccc4cccnc34)cc2)C1 [Compound 20]" assay_system="PKR WT (Homo sapiens, UniProt P30613)" reported_value="101 to 1000 nM"
compound="O=C(c1ccc(NS(=O)(=O)c2cccc3cccnc23)cc1)N1CC(O)(c2cccc(Cl)c2)C1 [Compound 11]" assay_system="PKR WT (Homo sapiens, UniProt P30613)" reported_value="< 100 nM"
compound="O=C(c1ccc(NS(=O)(=O)c2cccc3cccnc23)cc1)N1CC(O)(C2CC2)C1 [Compound 33]" assay_system="PKR WT (Homo sapiens, UniProt P30613)" reported_value="1010 to 10000 nM"

AC50 reported for this compound CN1C(=O)Cc2cc(S(=O)(=O)Nc3ccc(C(=O)N4CC(O)(Cc5ccccc5)C4)cc3)ccc21 [Compound 66] : > 10000 nM

AC50 reported for this compound CCC1(O)CN(C(=O)c2ccc(NS(=O)(=O)c3cccc4cccnc34)cc2)C1 [Compound 34] : 1010 to 10000 nM

AC50 reported for this compound O=C(c1ccc(NS(=O)(=O)c2cccc(Cl)c2Cl)cc1)N1CC(O)(Cc2ccccc2)C1 [Compound 52] : 1010 to 10000 nM

AC50 reported for this compound Cn1c(=O)oc2cc(S(=O)(=O)Nc3ccc(C(=O)N4CC(O)(Cc5ccccc5)C4)cc3)ccc21 [Compound 70] : > 10000 nM
